The origin of these recorded values is the supplement of paper PMC12494721.

System: Ruminococcus gnavus DSM 108212
ASSAY COMMENT: fold change of Tryptamine concentration vs plate DMSO controls (fold change (ratio)); higher = more amine produced, active = hit call of the paper (significant change in both replicates, either direction)
CONDITION CONTEXT: 20 µM; incubation time: 27 h, anaerobic, 37 °C
Where a name gives a salt, the structure may show the parent alone.
Overview of recorded fold change of Tryptamine concentration for various compounds
MEASUREMENT NAME: fold change of Tryptamine concentration

INSERT INTO measurements (compound, study_target, measured_value) VALUES
  ('O=C(CCCN1CCC2(CC1)C(=O)NCN2c1ccccc1)c1ccc(F)cc1 [Spiperone]', 'Ruminococcus gnavus DSM 108212', 1.01),
  ('COP(=O)(NC(C)=O)SC (stereo unspecified)', 'Ruminococcus gnavus DSM 108212', 1),
  ('S=C(NC1CCCCC1)N1CCC(c2cnc[nH]2)CC1 [Thioperamide maleate]', 'Ruminococcus gnavus DSM 108212', 1.02),
  ('COc1ccccc1N [o-Anisidine]', 'Ruminococcus gnavus DSM 108212', 1),
  ('CCNC1(c2cccs2)CCCCC1=O (stereo unspecified) [Tiletamine hydrochloride]', 'Ruminococcus gnavus DSM 108212', 1.02),
  ('O=[N+]([O-])O[C@@H]1CO[C@H]2[C@@H]1OC[C@@H]2O [Isosorbide mononitrate]', 'Ruminococcus gnavus DSM 108212', 0.984);
